Every entry's value here was drawn from patent US20240376094A2.

Molecular target: Bcl-xL (Homo sapiens, UniProt Q07817)
Construct: Measured levels of Bcl-xL protein of HCT116 cells treated with the tested compounds; host or cells: HCT116
Sequence (Q07817 whole entry): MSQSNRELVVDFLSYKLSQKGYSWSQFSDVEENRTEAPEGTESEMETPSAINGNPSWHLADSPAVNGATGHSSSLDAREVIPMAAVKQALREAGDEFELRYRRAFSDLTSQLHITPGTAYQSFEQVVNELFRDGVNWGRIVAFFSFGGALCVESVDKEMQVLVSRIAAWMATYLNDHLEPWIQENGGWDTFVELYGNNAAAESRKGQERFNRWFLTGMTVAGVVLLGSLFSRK
Assay: HCT116 Bcl-xL degradation, capillary-based immunoassay (WES)
Type: cell-based
Settings: HCT-116; HCT116, 100 nM, 24 h; % of untreated cells
Experimental: HCT116 cells were purchased from ATCC and cultivated in RPMI 1640 supplemented with 10% heat inactivated fetal bovine serum, penicillin (100 IU/mi), streptomycin (100 μg/ml) and L-glutamine (2 mM). […] Protein concentration in the supernatants was determined using the Pierce BCA protein assay kit (Thermo Fisher Scientific). […] Signals were detected with an HRP-conjugated secondary anti-rabbit antibody (#042-206, Proteinsimple) and were quantified using Compass software (version 4.0, Proteinsimple). […]
measure: remaining activity at 0.1 µM (%)

Reference set, count: 2
Cc1c(Nc2nc3ccccc3s2)nnc2c1CCCN2c1ccc(-c2cnn(CC34CC5(C)CC(C)(C3)CC(OCCN(C)CCCCCCCCOc3ccc6c(c3)C(=O)N(C3CCC(=O)NC3=O)C6=O)(C5)C4)c2C)c(C(=O)O)n1 (centres unmarked) ... 43
Cc1c(Nc2nc3ccccc3s2)nnc2c1CCCN2c1ccc(-c2cnn(CC34CC5(C)CC(C)(C3)CC(OCCN(C)CCOCCOCCOCCOCCOCCNc3cccc6c3C(=O)N(C3CCC(=O)NC3=O)C6=O)(C5)C4)c2C)c(C(=O)O)n1 (centres unmarked) ... 57

(P) Cc1ncsc1-c1ccc([C@H](C)NC(=O)C2C[C@@H](O)CN2C(=O)C(NC(=O)CCCCCC(=O)N2CCN(CC#Cc3ccc(OCCCc4sc(N5CCCc6c5nnc(Nc5nc7ccccc7s5)c6C)nc4C(=O)O)c(F)c3)CC2)C(C)(C)C)cc1 (stereo in doubt)
(Q) Cc1ncsc1-c1ccc(CNC(=O)C2C[C@@H](O)CN2C(=O)C(NC(=O)CCCCCC(=O)N2CCN(CCOC34CC5(C)CC(C)(CC(Cn6ncc(-c7ccc(N8CCCc9c8nnc(Nc8nc%10ccccc%10s8)c9C)nc7C(=O)O)c6C)(C5)C3)C4)CC2)C(C)(C)C)cc1 (stereo in doubt)
(R) Cc1c(Nc2nc3ccccc3s2)nnc2c1CCCN2c1ccc(-c2cnn(CC34CC5(C)CC(C)(C3)CC(OCCN(C)CCCCCCOc3ccc6c(c3)C(=O)N(C3CCC(=O)NC3=O)C6=O)(C5)C4)c2C)c(C(=O)O)n1 (centres unmarked)
-- ask Output the entries ranked by remaining activity at 0.1 µM from maximum down to minimum. Rank the items, then write their labels in that order.
-- reply R, Q, P

---

Biological target: Bcl-xL (Homo sapiens, UniProt Q07817)
Construct: Measured levels of Bcl-xL protein of HCT116 cells treated with the tested compounds; host or cells: HCT116
Assay: HCT116 Bcl-xL degradation, capillary-based immunoassay (WES)
Assay type: cell-based
Settings: HCT116, 24 h, 9-point serial dilution
measure: DC50 (nM)

(1) Cc1ncsc1-c1ccc([C@H](C)NC(=O)[C@@H]2C[C@@H](O)CN2C(=O)[C@@H](NC(=O)CCCCCCCNC(=O)c2nc(N3CCCc4c3nnc(Nc3nc5ccccc5s3)c4C)ccc2-c2cnn(CC34CC5(C)CC(C)(C3)CC(OCCN3CCCC3)(C5)C4)c2C)C(C)(C)C)cc1
(2) Cc1ncsc1-c1ccc(CNC(=O)[C@@H]2C[C@@H](O)CN2C(=O)[C@@H](NC(=O)C2(F)CC2)C(C)(C)C)c(OCCCCCCCCCCCCN(C)CCOC23CC4(C)CC(C)(CC(Cn5ncc(-c6ccc(N7CCCc8c7nnc(Nc7nc9ccccc9s7)c8C)nc6C(=O)O)c5C)(C4)C2)C3)c1
(3) Cc1ncsc1-c1ccc([C@H](C)NC(=O)[C@@H]2C[C@@H](O)CN2C(=O)[C@@H](NC(=O)CCOCCN(C)CCOC23CC4(C)CC(C)(CC(Cn5ncc(-c6ccc(N7CCCc8c7nnc(Nc7nc9ccccc9s7)c8C)nc6C(=O)O)c5C)(C4)C2)C3)C(C)(C)C)cc1
-- ask Quick favor: sort the compounds up above by DC50, largest first. Return value: ordered labels per request.
-- reply 3, 1, 2
(3: 13.6 nM, 1: 7.34 nM, 2: 0.397 nM)

---

Target: Bcl-xL (Homo sapiens, UniProt Q07817)
Construct: Measured levels of Bcl-xL protein of HCT116 cells treated with the tested compounds; host or cells: HCT116
Assay: HCT116 Bcl-xL degradation, capillary-based immunoassay (WES)
Type: cell-based
Conditions: HCT116, 24 h, 9-point serial dilution
measure: DC50 (nM)

(P) Cc1cc(N(CCCCN(C)C(=O)CCCCCCCCCCC(=O)N[C@H](C(=O)N2C[C@H](O)C[C@H]2C(=O)N[C@@H](C)c2ccc(-c3scnc3C)cc2)C(C)(C)C)c2ccc(-c3cnn(CC45CC6(C)CC(C)(C4)CC(OCCN(C)C)(C6)C5)c3C)c(C(=O)O)n2)nnc1Nc1nc2ccccc2s1
(Q) Cc1cc(N(CCCCN(C)C(=O)CCCCCCCCCOc2cccc3c2C(=O)N(C2CCC(=O)NC2=O)C3=O)c2ccc(-c3cnn(CC45CC6(C)CC(C)(C4)CC(OCCN(C)C)(C6)C5)c3C)c(C(=O)O)n2)nnc1Nc1nc2ccccc2s1 (centres unmarked)
-- ask Compare P and Q and name the one whose reported DC50 is smaller. Answer by stating the label of the chosen item.
-- reply P

---

Tested on: MOLT-4 cells
Assay: MOLT-4 cell viability, MTT assay
Format: cell-based
Details: Homo sapiens, MOLT-4, 48 h
pIC50: −log10 of the molar value.
measure: pIC50

Solved cases (3 shown):
Cc1c(Nc2nc3ccccc3s2)nnc2c1CCCN2c1ccc(-c2cnn(CC34CC5(C)CC(C)(C3)CC(OCCN(C)CCOCCOCCNc3cccc6c3C(=O)N(C3CCC(=O)NC3=O)C6=O)(C5)C4)c2C)c(C(=O)O)n1 (centres unmarked) [Example 12] ... 8.02
Cc1ncsc1-c1ccc([C@H](C)NC(=O)[C@@H]2C[C@@H](O)CN2C(=O)[C@@H](NC(=O)CCCCCCCCCCCCCCCN(C)CCOC23CC4(C)CC(C)(CC(Cn5ncc(-c6ccc(N7CCCc8c7nnc(Nc7nc9ccccc9s7)c8C)nc6C(=O)O)c5C)(C4)C2)C3)C(C)(C)C)cc1 [Example 1] ... 9.20
Cc1cc(N(CCCCCn2cc(CCCCCCCCC(=O)N[C@H](C(=O)N3C[C@H](O)C[C@H]3C(=O)NCc3ccc(-c4scnc4C)cc3)C(C)(C)C)nn2)c2ccc(-c3cnn(CC45CC6(C)CC(C)(C4)CC(OCCN(C)C)(C6)C5)c3C)c(C(=O)O)n2)nnc1Nc1nc2ccccc2s1 [Example 152] ... 7.09

(I) Cc1c(Nc2nc3ccccc3s2)nnc2c1CCCN2c1ccc(-c2cnn(CC34CC5(C)CC(C)(C3)CC(OCCN(C)CCCCCCCCCCCCOc3ccc6c(c3)C(=O)N(C3CCC(=O)NC3=O)C6=O)(C5)C4)c2C)c(C(=O)O)n1 (centres unmarked) [Example 140]
(II) Cc1ncsc1-c1ccc([C@H](C)NC(=O)C2C[C@@H](O)CN2C(=O)C(NC(=O)CCCCCCC(=O)N2CCN(CC#Cc3ccc(OCCCc4sc(N5CCCc6c5nnc(Nc5nc7ccccc7s5)c6C)nc4C(=O)O)c(F)c3)CC2)C(C)(C)C)cc1 (stereo in doubt) [Example 16]
(III) Cc1cc(N(CCCCCn2cc(COCCOCCOCCOCCNc3cccc4c3C(=O)N(C3CCC(=O)NC3=O)C4=O)nn2)c2ccc(-c3cnn(CC45CC6(C)CC(C)(C4)CC(OCCN(C)C)(C6)C5)c3C)c(C(=O)O)n2)nnc1Nc1nc2ccccc2s1 (centres unmarked) [Example 153]
(IV) CNCC#Cc1ccc(OCCCc2sc(N(CCCc3cn(CCOCCOCCOCCNC(=O)COc4cccc5c4C(=O)N(C4CCC(=O)NC4=O)C5=O)nn3)c3cc(C)c(Nc4nc5ccccc5s4)nn3)nc2C(=O)O)c(F)c1 (centres unmarked) [Example 27]
(V) Cc1c(Nc2nc3ccccc3s2)nnc2c1CCCN2c1ccc(-c2cnn(CC34CC5(C)CC(C)(C3)CC(OCCN(C)CCOCCNc3cccc6c3C(=O)N(C3CCC(=O)NC3=O)C6=O)(C5)C4)c2C)c(C(=O)O)n1 (centres unmarked) [Example 9]
-- ask # ascending order, key=pIC50 To answer, arrange all of the labels according to the requested order.
-- reply IV, III, V, II, I

---

Target: Bcl-xL (Homo sapiens)
Construct: Measured levels of Bcl-xL protein of HCT116 cells treated with the tested compounds; host or cells: HCT116
Assay: HCT116 Bcl-xL degradation, capillary-based immunoassay (WES)
Assay type: cell-based
Conditions: HCT-116; HCT116, 100 nM, 24 h; % of untreated cells
measure: remaining activity at 0.1 µM (%)

(a) Cc1ncsc1-c1ccc(CNC(=O)[C@@H]2CC(O)CN2C(=O)C(NC(=O)CCCCCCC(=O)N2CCN(CCOC34CC5(C)CC(C)(CC(Cn6ncc(-c7ccc(N8CCCc9c8nnc(Nc8nc%10ccccc%10s8)c9C)nc7C(=O)O)c6C)(C5)C3)C4)CC2)C(C)(C)C)cc1 (stereo in doubt)
(b) Cc1ncsc1-c1ccc(CNC(=O)C2C[C@@H](O)CN2C(=O)C(NC(=O)CCCCCC(=O)N2CCN(CC#Cc3ccc(OCCCc4sc(N5CCCc6c5nnc(Nc5nc7ccccc7s5)c6C)nc4C(=O)O)c(F)c3)CC2)C(C)(C)C)cc1 (stereo in doubt)
(c) Cc1cc(N(CCCCCn2cc(COCCOCCNc3cccc4c3C(=O)N(C3CCC(=O)NC3=O)C4=O)nn2)c2ccc(-c3cnn(CC45CC6(C)CC(C)(C4)CC(OCCN(C)C)(C6)C5)c3C)c(C(=O)O)n2)nnc1Nc1nc2ccccc2s1 (stereo not shown)
(d) Cc1cc(N(CCCCCn2cc(COCCOCCNC(=O)COc3cccc4c3C(=O)N(C3CCC(=O)NC3=O)C4=O)nn2)c2ccc(-c3cnn(CC45CC6(C)CC(C)(C4)CC(OCCN(C)C)(C6)C5)c3C)c(C(=O)O)n2)nnc1Nc1nc2ccccc2s1 (stereo not shown)
-- ask I would appreciate it if you could sort these 4 compounds by remaining activity at 0.1 µM, starting from the smallest number. Respond with the label ranking, as requested.
-- reply c, b, a, d
(c: 16%, b: 23%, a: 44%, d: 78%)
